- TARGET_OR_SYSTEM: Receptor-type tyrosine-protein kinase FLT3 (Homo sapiens, UniProt P36888)
- Sequence (P36888 whole entry): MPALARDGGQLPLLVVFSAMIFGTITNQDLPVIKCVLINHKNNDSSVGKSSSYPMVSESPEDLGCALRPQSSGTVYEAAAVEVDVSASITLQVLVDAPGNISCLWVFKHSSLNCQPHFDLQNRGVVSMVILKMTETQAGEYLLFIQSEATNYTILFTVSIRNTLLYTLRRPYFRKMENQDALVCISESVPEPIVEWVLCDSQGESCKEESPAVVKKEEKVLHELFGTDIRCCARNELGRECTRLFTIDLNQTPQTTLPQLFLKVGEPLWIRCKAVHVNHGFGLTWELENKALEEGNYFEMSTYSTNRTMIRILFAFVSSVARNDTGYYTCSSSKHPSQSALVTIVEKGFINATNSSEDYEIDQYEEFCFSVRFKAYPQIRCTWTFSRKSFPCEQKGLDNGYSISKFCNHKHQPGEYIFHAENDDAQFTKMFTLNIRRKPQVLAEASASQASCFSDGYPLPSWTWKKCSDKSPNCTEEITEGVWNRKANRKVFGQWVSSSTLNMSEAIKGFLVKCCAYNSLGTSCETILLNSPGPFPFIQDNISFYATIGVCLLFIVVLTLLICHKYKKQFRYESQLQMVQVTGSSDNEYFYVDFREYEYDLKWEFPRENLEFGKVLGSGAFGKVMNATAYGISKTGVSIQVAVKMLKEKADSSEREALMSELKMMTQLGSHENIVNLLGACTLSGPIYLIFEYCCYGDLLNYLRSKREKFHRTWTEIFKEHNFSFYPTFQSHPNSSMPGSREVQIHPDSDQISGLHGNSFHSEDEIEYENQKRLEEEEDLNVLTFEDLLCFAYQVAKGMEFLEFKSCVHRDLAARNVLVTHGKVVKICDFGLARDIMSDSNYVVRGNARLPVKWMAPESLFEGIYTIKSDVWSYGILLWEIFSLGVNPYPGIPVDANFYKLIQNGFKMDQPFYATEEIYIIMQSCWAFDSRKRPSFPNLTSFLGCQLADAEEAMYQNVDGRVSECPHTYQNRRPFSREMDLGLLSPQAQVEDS
- METHOD_NOTES: Inhibition of FLT3 (unknown origin) by LC-MS analysis
MEASURED_ENDPOINT: IC50 (µM)

Cc1cc(-c2cnn(C)c2C)ccc1-c1nnc(N(C)Cc2ccc3nccn3c2)o1 63.1
Cc1noc(C)c1-c1ccc(-c2nnc(N(C)Cc3ccc4nccn4c3)o2)cc1 39.8
Cc1cc(-c2c(C)nn(C)c2C#N)ccc1-c1nnc(N(C)Cc2ccc3nccn3c2)o1 15.8
Cc1nn(C)c(C)c1-c1ccc(-c2nnc(N(C)Cc3ccc4nccn4c3)o2)c(C#N)c1 79.4
CN(Cc1ccc2nccn2c1)c1nnc(-c2ccc(-c3ccccc3F)cc2)o1 50.1
Cc1cc(-c2c(C)nc(C)n2C)ccc1-c1nnc(N(C)Cc2ccc3nccn3c2)o1 39.8
Cc1ncccc1-c1ccc(-c2nnc(N(C)Cc3ccc4nccn4c3)o2)cc1 20
Cc1ccccc1-c1ccc(-c2nnc(N(C)Cc3ccc4nccn4c3)o2)cc1 1
CN(Cc1ccc2nccn2c1)c1nnc(-c2ccc(-c3ccccc3C#N)cc2)o1 10
